Measured values drawn from patent US20230295293A1 for this set.

- STUDY TARGET: cyno FRα
- Sequence (as listed by the source): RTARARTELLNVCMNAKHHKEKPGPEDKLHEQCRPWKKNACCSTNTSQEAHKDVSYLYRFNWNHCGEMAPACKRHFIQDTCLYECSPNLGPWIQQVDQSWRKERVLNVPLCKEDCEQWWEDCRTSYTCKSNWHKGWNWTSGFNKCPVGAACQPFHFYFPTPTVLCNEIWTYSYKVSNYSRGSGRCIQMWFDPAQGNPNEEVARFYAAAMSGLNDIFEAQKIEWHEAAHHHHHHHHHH
- EXPERIMENT: Biacore T200 surface plasmon resonance affinity
- Type: binding, cynomolgus monkey
- SETTINGS: SPR 25° C.
REPORTED PROPERTY: kd (s⁻¹)

>  <MOLECULE>
AB1370095: anti-FRα fully human IgG1 antibody; VH SEQ ID NO: 45, VL SEQ ID NO: 46 (antibody, V domains shown) VH: EVQLVESGGGLVKPGGSLRLSCAASGFTFSSYSMNWVRQAPGKGLEWVSSISSRSSYVYYADSVKGRFTISRDNAKNSLYLQMNSLRAEDTAVYYCARGMTTLTFDYWGQGTLVTVSS VL: DIQMTQSPSSLSASVGDRVTITCRASQGISSFLAWFQQKPGKAPKSLIYAASSLQSGVPSKFSGSGSGTDFTLTISSLQPEDFATYYCQQYNSYPLTFGGGTKVEIK

>  <UNIT ABBREVIATION>
s⁻¹

>  <TEST RESULT>
0.00183

$$$$
>  <MOLECULE>
AB1370035: anti-FRα fully human IgG1 antibody; VH SEQ ID NO: 41, VL SEQ ID NO: 42 (antibody, V domains shown) VH: QVQLQQSGPGLVKPSQTLSLTCAISGDSVSSNSAAWNWIRQSPSRGLEWLGRTYYRSNWYNDYTLSVKSRITVNPDTSKNQFSLQLNSVTPEDTAVYYCVRGVGRFDSWGQGTLVTVSS VL: DIQMTQSPSTLSASVGDRVIITCRASQSISSWLAWYQQKPGKAPKLLIYKASSLESGVPSRFSGSGSGTEFTLTITSLQPDDFASYYCQEYKTYSIFTFGPGTKVDIK

>  <UNIT ABBREVIATION>
s⁻¹

>  <TEST RESULT>
0.000508

$$$$
>  <MOLECULE>
AB1370083: anti-FRα fully human IgG1 antibody; VH SEQ ID NO: 43, VL SEQ ID NO: 44 (antibody, V domains shown) VH: EVQLVESGGGLVKPGGSLRLSCAASGFTFSSYNMNWVRQAPGKGLEWVSSISSGSSYIYYADSMKGRFTISRDNAKNSLFLQMNSLRAEDTAVYYCARGMTTLTFDYWGQGTLVTVSS VL: DIQMTQSPSSLSASVGDRVTITCRASQGISTFLAWFQQKPGKAPKSLIYAASSLQSGVPSKFSGSGSETDFTLTISSLQPEDFATYYCQQYISYPLTFGGGTKVEIK

>  <UNIT ABBREVIATION>
s⁻¹

>  <TEST RESULT>
0.00016

$$$$
>  <MOLECULE>
AB1370026: anti-FRα fully human IgG1 antibody; VH SEQ ID NO: 39, VL SEQ ID NO: 40 (antibody, V domains shown) VH: EVQLVESGGGLVKPGGSLRLSCAASGFTFSSYAMSWVRQAPGKGLEWVSSISSGRSYIYYADSVKGRFTISRDNAKNSLYLKMNSLRDEDTAVYYCAREMQQLALDYWGQGTLVTVSS VL: DIQMTQSPSSLSASVGDRVTITCRASQGISNFLAWFQQAPGKAPKSLIYAASSLQSGVPSKFSGSGSGTDFTLTISSLQPEDFATYYCQQYNSYPFTFGQGTKLEIK

>  <UNIT ABBREVIATION>
s⁻¹

>  <TEST RESULT>
0.000342

$$$$
